Test summary: Phase 1 open-label study: plasma PK of single inhaled nezulcitinib doses under supplemental oxygenation scenarios
Format: in vivo, human
Recorded conditions: human, plasma, inhaled, 3 mg, Administration D1: single 3 mg, oral inhalation, high-flow nasal cannula oxygen 50 L/min; plasma; arithmetic mean; read-out: t½ (converted)
Readout name: half-life (h)
One number for each entry, in h.

Form field half-life, entry CCc1cc(O)ccc1-c1ccc2c(-c3nc4c([nH]3)CN(C(C)C)[C@H](C(=O)N3CC(N(C)C)C3)C4)n[nH]c2c1 : 12.3

###

Test summary: Phase 1 open-label study: plasma PK of single inhaled nezulcitinib doses under supplemental oxygenation scenarios
Format: in vivo, human
Recorded conditions: human, plasma, inhaled or intranasal, 3 mg, Administration A: single 3 mg, nasal inhalation via high-flow nasal cannula circuit, oxygen 30 L/min; plasma; arithmetic mean; read-out: AUC0-24
Readout name: AUC(0-t) (ng·h/mL)
Answers are plain numbers, in ng·h/mL.

Form field AUC(0-t), entry CCc1cc(O)ccc1-c1ccc2c(-c3nc4c([nH]3)CN(C(C)C)[C@H](C(=O)N3CC(N(C)C)C3)C4)n[nH]c2c1 : 7.06

###

Test summary: Phase 1 open-label study: plasma PK of single inhaled nezulcitinib doses under supplemental oxygenation scenarios
Type: in vivo, human
Recorded conditions: human, plasma, inhaled, 9 mg, Administration D2: single 9 mg, oral inhalation, high-flow nasal cannula oxygen 50 L/min; plasma; arithmetic mean
Readout name: AUC(0-inf) (ng·h/mL)
Numbers only, in ng·h/mL.

Form field AUC(0-inf), entry CCc1cc(O)ccc1-c1ccc2c(-c3nc4c([nH]3)CN(C(C)C)[C@H](C(=O)N3CC(N(C)C)C3)C4)n[nH]c2c1 [Compound 1] : 152

###

Test summary: Phase 1 open-label study: plasma PK of single inhaled nezulcitinib doses under supplemental oxygenation scenarios
Type: in vivo, human
Recorded conditions: human, plasma, inhaled or intranasal, 3 mg, Administration A: single 3 mg, nasal inhalation via high-flow nasal cannula circuit, oxygen 30 L/min; plasma; arithmetic mean; read-out: Vz/F
Readout name: Vd/F (L)
Give bare numbers, in L.

Form field Vd/F, entry CCc1cc(O)ccc1-c1ccc2c(-c3nc4c([nH]3)CN(C(C)C)[C@H](C(=O)N3CC(N(C)C)C3)C4)n[nH]c2c1 [Compound 1] : 7400

###

Test summary: Phase 1 open-label study: plasma PK of single inhaled nezulcitinib doses under supplemental oxygenation scenarios
Assay type: in vivo, human
Recorded conditions: human, plasma, inhaled, 3 mg, Administration D1: single 3 mg, oral inhalation, high-flow nasal cannula oxygen 50 L/min; plasma; arithmetic mean
Readout name: AUC(0-inf) (ng·h/mL)
Give bare numbers, in ng·h/mL.

Form field AUC(0-inf), entry CCc1cc(O)ccc1-c1ccc2c(-c3nc4c([nH]3)CN(C(C)C)[C@H](C(=O)N3CC(N(C)C)C3)C4)n[nH]c2c1 : 52.3

###

Test summary: Phase 1 open-label study: plasma PK of single inhaled nezulcitinib doses under supplemental oxygenation scenarios
Assay type: in vivo, human
Recorded conditions: human, plasma, inhaled, 9 mg, Administration D2: single 9 mg, oral inhalation, high-flow nasal cannula oxygen 50 L/min; plasma; arithmetic mean; read-out: t½ (converted)
Method: Part A: assessed the plasma PK of nezulcitinib following single inhaled doses administered in the setting of various supplemental oxygenation scenarios in healthy participants. This was a Phase 1, open-label, fixed-sequence, 4-period study to evaluate the PK and safety of single inhaled doses of nezulcitinib, administered under different supplemental oxygenation scenarios. […] The following non-compartmental PK parameters were calculated for nezulcitinib, as appropriate: […]
Readout name: half-life
The reply must contain the numeric value and, after it, the unit.

Form field half-life, entry CCc1cc(O)ccc1-c1ccc2c(-c3nc4c([nH]3)CN(C(C)C)[C@H](C(=O)N3CC(N(C)C)C3)C4)n[nH]c2c1 [Compound 1] : 14.1 h
